tested on: A549; assay: NCI tumour cell line growth inhibition, 48 h
Activity calls are given as the source filed them. No stated cut-off is given here; in the data, active = GI50 up to about 1.1 µM and inactive = higher.
Labels: y for active, n for inactive

[[record]]
compound = "O=c1[nH]/c(=C/c2ccc(OCc3ccccc3)cn2)c(=O)[nH]/c1=C/c1ccccc1"
experimental_system = "A549"
label_value = "y"

[[record]]
compound = "Nn1c(-c2ccccc2)n[nH]c1=O"
experimental_system = "A549"
label_value = "n"

[[record]]
compound = "c1ccc(Nn2c(CCCCCCCCc3nnc(COc4ccccc4)n3Nc3ccccc3)nnc2COc2ccccc2)cc1"
experimental_system = "A549"
label_value = "n"

[[record]]
compound = "COc1ccc(CNc2nc3cc(C(F)(F)F)ccc3nc2C(=O)O)cc1OC"
experimental_system = "A549"
label_value = "n"

[[record]]
compound = "COC1=CC(=O)C2C(C1=O)C(c1ccc(OC)c(OC)c1)[C@H]2C (some centres undefined)"
experimental_system = "A549"
label_value = "n"

[[record]]
compound = "C=CCOC(=O)NC1C(OC(C)[C@@H](NC(=O)OCc2ccccc2)C(=O)OC(C)(C)C)OC(COC(C)=O)C(OC(C)=O)C1OC(C)=O (some centres undefined)"
experimental_system = "A549"
label_value = "n"

[[record]]
compound = "COc1cccc([C@@H]2C/C(=N\\NC(=O)C(=O)N[C@@H](C)c3ccccc3)c3ccccc3N2)c1"
experimental_system = "A549"
label_value = "n"

[[record]]
compound = "COc1c(C(C)(C)C)cc(CC2C(=O)C=CC2=O)cc1C(C)(C)C"
experimental_system = "A549"
label_value = "n"

[[record]]
compound = "C[N+](C)([O-])CCCNc1ccnc2cccc([N+](=O)[O-])c12"
experimental_system = "A549"
label_value = "n"


###

tested on: NCI-H23; assay: NCI tumour cell line growth inhibition, 48 h
Calls of active or inactive are those of the source. No stated cut-off is given here; in the data, active = GI50 up to about 1.1 µM and inactive = higher.
Reported GI50 values for the following compounds.
quantity_kind: GI50

[[record]]
compound = "O=C(OCCCl)C1OC(n2cc(F)c(=O)[nH]c2=O)CC1O (stereo not drawn)"
meas_value = "> 100 µM (inactive)"

[[record]]
compound = "CCCCCCCCCCCCCCCCP(=O)(O)OCC(N)C(=O)O (stereo not drawn)"
meas_value = "90.4 µM (inactive)"

[[record]]
compound = "O=C(Nc1ccc(F)cc1)C(=O)C(C1OC(=O)c2ccccc21)[N+](=O)[O-] (stereo not drawn)"
meas_value = "> 100 µM (inactive)"

[[record]]
compound = "CCOC(=O)CCCn1cc(C(=O)OC)nn1"
meas_value = "> 100 µM (inactive)"

[[record]]
compound = "COc1cc(C2c3cc4c(cc3OC(N3CCOCC3)C2C)OCO4)ccc1O (stereo not drawn)"
meas_value = "28.6 µM (inactive)"

[[record]]
compound = "CC[N+]1(C)CCC(O)(c2ccc(C)cc2)C(C(=O)c2ccc(C)cc2)C1 (stereo not drawn)"
meas_value = "> 100 µM (inactive)"

[[record]]
compound = "C=C1CC2C[C@H](OS(=O)(=O)c3ccc(C)cc3)C(C1)N2C (stereo partly drawn)"
meas_value = "> 100 µM (inactive)"

[[record]]
compound = "C#CC1(OC(C)=O)CCC2C3CC=C4C=C(OC(C)=O)CCC4(C)C3CCC21C (stereo not drawn)"
meas_value = "18.3 µM (inactive)"

[[record]]
compound = "CCOP(=O)(OCC)/C(C#N)=C/c1c(C)[nH]c2ccccc12"
meas_value = "> 100 µM (inactive)"

[[record]]
compound = "CC1CN(CCO)CC(C)O1 (stereo not drawn)"
meas_value = "> 100 µM (inactive)"

[[record]]
compound = "COc1cc(C2C(Cl)C(=O)N2NC(=O)c2ccc(NC(C)=O)cc2)cc(OC)c1OC (stereo not drawn)"
meas_value = "> 100 µM (inactive)"

[[record]]
compound = "CC1=C[C@H](C[C@]2(C)c3c(c4c(C)cccc4oc3=O)O[C@@H]2C)OC1=O"
meas_value = "65.5 µM (inactive)"

[[record]]
compound = "COC(=O)c1cc2c3c(c(C(C)=O)c(OC)c2[nH]1)NCC3"
meas_value = "> 50 µM (inactive)"

